Test system: rat RANKL mRNA
protocol.details: Antisense inhibition of rat RANKL mRNA levels in UMR-106 cells, quantitative real-time PCR (Table 3)
Format: cell-based
Set-up: concentration or dose not given beside the values
measurement.parameters: averages from three experiments
Strand notation (5' to 3'): a small letter for the sugar, then the base; units joined by * are phosphorothioate-linked, units joined directly phosphodiester-linked; [ ] holds rarer units or linkages, { } end groups; capitals alone tell only the bases. e = 2'-O-(2-methoxyethyl) (MOE); [5mC] = 5-methylcytosine; d = 2'-deoxy (DNA)
measured.property: % INHIB (inhibition of rat RANKL mRNA levels)

{"substance": "ctttgaaagccccaaagtac (e[5mC]*eT*eT*eT*eG*dA*dA*dA*dG*d[5mC]*d[5mC]*d[5mC]*d[5mC]*dA*dA*eA*eG*eT*eA*e[5mC]; antisense) [ISIS 286641, 2′-MOE gapmer targeted to rat RANKL]", "assay.result": "at least 40%"}
{"substance": "gctcgaaagtacaggaacag (antisense eG*e[5mC]*eT*e[5mC]*eG*dA*dA*dA*dG*dT*dA*d[5mC]*dA*dG*dG*eA*eA*e[5mC]*eA*eG) [ISIS 180802, 2′-MOE gapmer targeted to mouse and rat RANKL]", "assay.result": "at least 40%"}
{"substance": "acagagcgatgctgcagacc (antisense eA*e[5mC]*eA*eG*eA*dG*d[5mC]*dG*dA*dT*dG*d[5mC]*dT*dG*d[5mC]*eA*eG*eA*e[5mC]*e[5mC]) [ISIS 286589, 2′-MOE gapmer targeted to rat RANKL]", "assay.result": "at least 40%"}
